Values of Kd reported for BDNF/NT-3 growth factors receptor (Homo sapiens) appear below.
Measured Attribute: Kd (nM)

- Compound: "OC1CCN(c2cc(-c3cccc(-c4cnc5ccc(N6CCC[C@@H]6c6cccc(F)c6)nn45)n3)ccn2)CC1"
  Readout Unit: "nM"
  Endpoint Value: 22.7
- Compound: "O=C1CCC(N2C(=O)c3cccc(NCCCCCC(=O)N4CCN(c5cccc(-c6cnc7ccc(N8CCC[C@@H]8c8cccc(F)c8)nn67)n5)CC4)c3C2=O)C(=O)N1 (some centres undefined)"
  Readout Unit: "nM"
  Endpoint Value: 112
- Compound: "CN1C(=O)CCC(N2C(=O)c3cccc(NCCOCCC(=O)N4CCN(c5cccc(-c6cnc7ccc(N8CCC[C@@H]8c8cccc(F)c8)nn67)n5)CC4)c3C2=O)C1=O (some centres undefined)"
  Readout Unit: "nM"
  Endpoint Value: 59.8
- Compound: "O=C1CCC(N2C(=O)c3cccc(NCCOCCC(=O)N4CCN(c5cccc(-c6cnc7ccc(N8CCC[C@@H]8c8cccc(F)c8)nn67)n5)CC4)c3C2=O)C(=O)N1 (some centres undefined)"
  Readout Unit: "nM"
  Endpoint Value: 28
